assay: Plasma protein binding test, monkey; type: in vitro ADME
endpoint: fraction unbound at 4 h, 2 μM

>>> df
                                   compound  recordedvalue
0  CCC(=O)c1cnc(NC(=O)C2CC2)cc1Nc1cccc(-c2cc(P(C)(C)=O)n(C)n2)c1OC [Compound B2]          0.042
1  [2H]C([2H])([2H])NC(=O)c1nnc(NC(=O)C2CC2)cc1Nc1cccc(-c2cc(P(=O)(C3CC3)C3CC3)n(C)n2)c1OC [Compound B41]          0.076

====

Assay: Pharmacokinetic evaluation in rats
Assay type: in vivo, rat
Details: male, plasma, iv; rat, i.v. 2 mg/kg
Protocol: The rat pharmacokinetic characteristics of compounds were tested by standard protocols. The candidate compounds were made into clear solution for single intravenous injection (i.v.) and suspension for oral administration (p.o.). Intravenous vehicle is 5% DMSO+10% Solutol+85% Saline. Of which adjusts pH to 3 for B37. While oral vehicle is 0.5% CMCNa for B2 and B22, 5% DMSO+10% Solutol+85% Saline, pH˜3 for B37, 5% DMSO+10% Solutol+85% Saline for B41. […]
Catalogue of compounds with associated half-life
endpoint: half-life

>>> print(df.to_string())
                                inputsmiles   endpoint  recordedvalue
0  [2H]C([2H])([2H])n1nc(-c2cccc(Nc3cc(NC(=O)C4CC4)ncc3C(=O)CC)c2OC)cc1P(C)(C)=O  half-life          1.3 h
1  [2H]C([2H])([2H])NC(=O)c1nnc(NC(=O)C2CC2)cc1Nc1cccc(-c2cc(P(=O)(C3CC3)C3CC3)n(C)n2)c1OC  half-life            1 h
2  CCC(=O)c1cnc(NC(=O)C2CC2)cc1Nc1cccc(-c2cc(P(=O)(C3CC3)C3CC3)n(C)n2)c1OC  half-life         0.96 h
3  CCC(=O)c1cnc(NC(=O)C2CC2)cc1Nc1cccc(-c2cc(P(C)(C)=O)n(C)n2)c1OC  half-life          1.3 h

====

Target: TYK2 (Mus musculus (Mouse))
Sequence (Q9R117 whole entry): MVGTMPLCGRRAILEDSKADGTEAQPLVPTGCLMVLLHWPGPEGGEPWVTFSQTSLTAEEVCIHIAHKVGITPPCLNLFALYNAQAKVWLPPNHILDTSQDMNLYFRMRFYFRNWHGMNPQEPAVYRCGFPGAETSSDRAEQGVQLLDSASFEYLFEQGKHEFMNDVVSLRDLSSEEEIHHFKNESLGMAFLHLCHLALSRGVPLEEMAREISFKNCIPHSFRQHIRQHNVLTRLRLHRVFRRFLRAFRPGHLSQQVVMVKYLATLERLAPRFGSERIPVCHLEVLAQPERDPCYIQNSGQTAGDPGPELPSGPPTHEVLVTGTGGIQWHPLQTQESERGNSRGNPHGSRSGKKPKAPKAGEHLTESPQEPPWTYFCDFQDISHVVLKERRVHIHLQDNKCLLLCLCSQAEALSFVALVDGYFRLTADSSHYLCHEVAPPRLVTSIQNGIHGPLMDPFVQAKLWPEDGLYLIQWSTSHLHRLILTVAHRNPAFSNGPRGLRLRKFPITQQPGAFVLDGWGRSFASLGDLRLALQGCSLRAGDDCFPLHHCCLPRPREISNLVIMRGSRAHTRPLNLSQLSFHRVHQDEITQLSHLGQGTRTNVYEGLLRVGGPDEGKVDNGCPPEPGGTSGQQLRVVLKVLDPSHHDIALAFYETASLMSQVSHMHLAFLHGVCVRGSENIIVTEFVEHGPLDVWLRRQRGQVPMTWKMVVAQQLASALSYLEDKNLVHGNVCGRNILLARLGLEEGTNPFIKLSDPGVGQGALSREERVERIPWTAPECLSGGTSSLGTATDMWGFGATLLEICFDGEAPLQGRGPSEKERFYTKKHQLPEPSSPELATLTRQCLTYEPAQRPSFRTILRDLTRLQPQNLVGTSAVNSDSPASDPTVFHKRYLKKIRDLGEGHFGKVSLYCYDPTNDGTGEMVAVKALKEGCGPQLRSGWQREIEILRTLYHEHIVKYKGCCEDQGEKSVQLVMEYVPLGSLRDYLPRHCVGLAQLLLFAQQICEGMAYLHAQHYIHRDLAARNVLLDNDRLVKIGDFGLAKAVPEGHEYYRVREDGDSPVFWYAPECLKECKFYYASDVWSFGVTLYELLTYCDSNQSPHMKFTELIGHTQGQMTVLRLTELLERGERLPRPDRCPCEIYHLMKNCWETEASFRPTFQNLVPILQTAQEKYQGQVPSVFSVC
Assay: Luciferase assay in L929 ISRE cells stimulated with IFN-α
Format: cell-based
Conditions: 200 nM, IFN-α 100 ng/mL, read-out: Inhibitory activity % (200 nM)
Protocol: • 1. L929 ISRE cells (5000 cells/well) were seeded on 96-well plates and incubated overnight at room temperature; • 2. […] Transferred PLB lysis solution (30 μL) to a new 96-well whiteboard, added LAR II reagent (LAR II), then quickly read the […]; • 7. Added Stop & Glo reagent (30 μL), then read the 450 nm OD value using the plate washer. • 8. […]
Catalogue of molecules with associated inhibition at 0.2 µM
endpoint: inhibition at 0.2 µM (%)

In [3]: df
Out[3]:
                                inputsmiles           experimentaltarget  recordedvalue
0  [2H]C([2H])([2H])NC(=O)c1nnc(NC(=O)C2CC2)cc1Nc1cccc(-c2cc(P(=O)(C3CC3)C3CC3)n(C)n2)c1OC  TYK2 (Mus musculus (Mouse))             92
1  CCC(=O)c1cnc(NC(=O)C2CC2)cc1Nc1ncnc(-c2cc(P(=O)(C3CC3)C3CC3)n(C)n2)c1OC  TYK2 (Mus musculus (Mouse))             88
2  CCC(=O)c1cnc(NC(=O)C2CC2)cc1Nc1cccc(-c2cc(P(=O)(C3CC3)C3CC3)n(C)n2)c1OC  TYK2 (Mus musculus (Mouse))             95
3  [2H]C([2H])([2H])NC(=O)c1nnc(NC(=O)C2CC2)cc1Nc1cccc(-c2cc(P(=O)(CC)CC)n(C)n2)c1OC  TYK2 (Mus musculus (Mouse))             83
